# subject-of-test: EGFR T790M/L858R/C797S (NCI-H1975+CS cells) (Homo sapiens, UniProt P00533, C797S/L858R/T790M)
# Construct: NCI-H1975+CS (harboring EGFR heterozygous T/790M/L858R/C797S mutations) was generated using CRISPR technology; host or cells: NCI-H1975+CS (CRISPR-edited NCI-H1975)
# Sequence (P00533 25-1210 T790M/C797S/L858R): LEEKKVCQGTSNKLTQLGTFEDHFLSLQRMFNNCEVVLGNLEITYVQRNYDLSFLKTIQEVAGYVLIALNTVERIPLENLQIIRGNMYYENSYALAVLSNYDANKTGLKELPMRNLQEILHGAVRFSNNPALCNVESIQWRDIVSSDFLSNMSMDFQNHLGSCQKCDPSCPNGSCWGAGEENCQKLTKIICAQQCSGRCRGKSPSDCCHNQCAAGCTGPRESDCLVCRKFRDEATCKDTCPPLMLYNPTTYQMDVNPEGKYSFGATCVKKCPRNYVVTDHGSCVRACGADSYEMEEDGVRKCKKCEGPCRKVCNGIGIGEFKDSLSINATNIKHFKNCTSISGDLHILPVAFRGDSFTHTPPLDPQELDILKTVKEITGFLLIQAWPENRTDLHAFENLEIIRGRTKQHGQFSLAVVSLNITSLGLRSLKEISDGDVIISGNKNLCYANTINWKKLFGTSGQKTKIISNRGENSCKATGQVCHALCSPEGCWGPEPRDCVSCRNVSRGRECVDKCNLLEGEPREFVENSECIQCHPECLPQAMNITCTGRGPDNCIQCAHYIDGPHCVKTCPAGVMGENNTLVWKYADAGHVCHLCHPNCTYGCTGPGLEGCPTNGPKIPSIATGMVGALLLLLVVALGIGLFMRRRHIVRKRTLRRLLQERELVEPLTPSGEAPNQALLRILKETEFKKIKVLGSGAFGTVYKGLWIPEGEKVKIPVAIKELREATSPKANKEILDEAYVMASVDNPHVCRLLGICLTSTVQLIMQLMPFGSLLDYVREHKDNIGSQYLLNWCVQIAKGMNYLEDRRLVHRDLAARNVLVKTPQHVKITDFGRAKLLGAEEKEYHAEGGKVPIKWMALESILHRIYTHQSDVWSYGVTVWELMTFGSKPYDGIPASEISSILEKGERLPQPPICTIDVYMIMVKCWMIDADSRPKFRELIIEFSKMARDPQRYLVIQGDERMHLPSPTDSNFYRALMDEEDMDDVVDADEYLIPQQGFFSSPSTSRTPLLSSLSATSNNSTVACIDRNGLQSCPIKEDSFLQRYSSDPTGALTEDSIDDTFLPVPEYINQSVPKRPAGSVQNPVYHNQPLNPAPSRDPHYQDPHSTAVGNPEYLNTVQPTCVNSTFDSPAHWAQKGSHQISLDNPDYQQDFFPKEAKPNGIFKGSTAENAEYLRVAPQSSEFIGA
# test-details: EGFR (L858R) degradation analysis, Total EGFR (L858R) HTRF, NCI-H1975+CS cells
# Assay type: cell-based
# condition-summary: 6 hours, read-out: H1975 C797S clone EGFR DC50
# Method: NCI-H1975 (harboring EGFR heterozygous T790M/L858R mutations) and NCI-H3255 (harboring EGFR heterozygous L858R mutation) were purchased from ATCC and NCI, respectively. […] Degradation of EGFR protein containing L858R mutation was determined based on quantification of FRET signal using Total EGFR (L858R) HTRF assay kit. […] FRET signal was acquired on EnVision™ Multilabel Reader (PerkinElmer, Santa Clara, CA, USA).
readout-type: DC50 (nM)
# value in nM; strip the unit string

Query: Give reported DC50 value for O=C1CC[C@H](Nc2ccc(C3CCN(C(=O)CN4CCN(Cc5ccc(-c6cc(F)c7c(c6)C(=O)N(C(C(=O)Nc6nccs6)c6ncn8c6CCC8)C7)cc5)CC4)CC3)c(F)c2)C(=O)N1 (stereo partly drawn) [Compound 59]
Reply: 8

Query: Specify DC50 for O=C1CCC(Nc2ccc(C3CCN(CC(=O)N4CCN(c5ccc(-c6cc(F)c7c(c6)C(=O)N(C(C(=O)Nc6nccs6)c6ncn8c6C[C@@H](F)C8)C7)cc5)CC4)CC3)cc2)C(=O)N1 (mixture of isomers) [Compound 43] and stop.
Reply: 18

Query: Given the molecule O=C1CC[C@H](Nc2ccc(C3CCN(CC(=O)N4CCN(c5ccc(-c6cc(F)c7c(c6)C(=O)N(C(C(=O)Nc6nccs6)c6ncn8c6CCC8)C7)cc5)CC4)CC3)cc2)C(=O)N1 (stereo partly drawn) [Compound 6] , write its reported DC50.
Reply: 8

---

# subject-of-test: EGFR T790M/L858R (NCI-H1975 cells) (Homo sapiens, UniProt P00533, L858R/T790M)
# Construct: NCI-H1975 (harboring EGFR heterozygous T790M/L858R mutations); host or cells: NCI-H1975
# Sequence (P00533 25-1210 T790M/L858R): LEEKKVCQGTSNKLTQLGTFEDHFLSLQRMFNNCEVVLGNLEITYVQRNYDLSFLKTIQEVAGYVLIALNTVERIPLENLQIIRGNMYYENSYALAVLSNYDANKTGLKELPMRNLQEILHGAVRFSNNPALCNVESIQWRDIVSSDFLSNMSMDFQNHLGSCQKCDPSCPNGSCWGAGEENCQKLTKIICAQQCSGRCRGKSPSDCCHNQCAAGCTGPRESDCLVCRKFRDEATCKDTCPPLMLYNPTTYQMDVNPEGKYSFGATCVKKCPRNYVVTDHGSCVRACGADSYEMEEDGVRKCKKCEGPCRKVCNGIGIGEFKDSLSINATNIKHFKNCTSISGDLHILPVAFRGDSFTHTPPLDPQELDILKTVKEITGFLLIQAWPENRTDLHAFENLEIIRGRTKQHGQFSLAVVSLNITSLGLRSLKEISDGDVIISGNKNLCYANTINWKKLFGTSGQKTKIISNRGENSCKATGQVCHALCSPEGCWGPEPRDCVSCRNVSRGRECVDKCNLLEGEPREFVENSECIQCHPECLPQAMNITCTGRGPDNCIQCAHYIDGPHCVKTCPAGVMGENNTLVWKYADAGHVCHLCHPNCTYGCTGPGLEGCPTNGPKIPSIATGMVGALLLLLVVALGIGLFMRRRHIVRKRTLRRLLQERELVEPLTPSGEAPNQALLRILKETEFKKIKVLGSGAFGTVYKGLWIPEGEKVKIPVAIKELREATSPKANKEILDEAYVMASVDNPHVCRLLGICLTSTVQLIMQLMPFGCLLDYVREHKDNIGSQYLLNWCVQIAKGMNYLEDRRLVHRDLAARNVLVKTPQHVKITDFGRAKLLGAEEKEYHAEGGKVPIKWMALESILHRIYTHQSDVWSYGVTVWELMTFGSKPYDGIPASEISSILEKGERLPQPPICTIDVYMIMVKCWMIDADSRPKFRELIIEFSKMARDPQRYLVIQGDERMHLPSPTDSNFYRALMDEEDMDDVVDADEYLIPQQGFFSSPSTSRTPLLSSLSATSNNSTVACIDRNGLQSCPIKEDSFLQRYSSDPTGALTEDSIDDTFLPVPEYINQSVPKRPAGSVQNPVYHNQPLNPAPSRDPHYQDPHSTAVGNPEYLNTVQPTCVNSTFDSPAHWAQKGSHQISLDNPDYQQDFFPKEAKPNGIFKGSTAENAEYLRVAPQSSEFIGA
# test-details: EGFR (L858R) degradation analysis, Total EGFR (L858R) HTRF, NCI-H1975 cells
# Type: cell-based
# condition-summary: 6 hours
readout-type: DC50 (µM)
Use µM as the unit, but write only the number.

{"compound": "O=C1CC[C@@H](Nc2ccc(C3CCN(CC(=O)N4CCN(c5ccc(-c6cc(F)c7c(c6)C(=O)N(C(C(=O)Nc6nccs6)c6ncn8c6CCC8)C7)cc5)CC4)CC3)cc2)C(=O)N1 (some centres unmarked) [Compound 7]", "subject-of-test": "EGFR T790M/L858R (NCI-H1975 cells) (Homo sapiens, UniProt P00533, L858R/T790M)", "measurement-units": "µM", "DC50": 0.018}
{"compound": "O=C1CC[C@H](Nc2ccc(C3CCN(CC(=O)N4CCN(c5ccc(-c6cc(F)c7c(c6)C(=O)N(C(C(=O)Nc6nccs6)c6ncn8c6CCC8)C7)cc5)CC4)CC3)cc2)C(=O)N1 (some centres unmarked) [Compound 6]", "subject-of-test": "EGFR T790M/L858R (NCI-H1975 cells) (Homo sapiens, UniProt P00533, L858R/T790M)", "measurement-units": "µM", "DC50": 0.022}
{"compound": "N#Cc1cc(NC2CCC(=O)NC2=O)ccc1C1CCN(CC(=O)N2CCC(Oc3ccc(-c4cc(F)c5c(c4)C(=O)N(C(C(=O)Nc4nccs4)c4ncn6c4CCC6)C5)cc3)CC2)CC1 (centres unmarked) [Compound 37]", "subject-of-test": "EGFR T790M/L858R (NCI-H1975 cells) (Homo sapiens, UniProt P00533, L858R/T790M)", "measurement-units": "µM", "DC50": 0.046}
{"compound": "Cn1nc(N2CCC(=O)NC2=O)c2ccc(C3CCN(CC(=O)N4CCN(c5ccc(-c6cc(F)c7c(c6)C(=O)N(C(C(=O)Nc6nccs6)c6ncn8c6C[C@@H](F)C8)C7)cc5)CC4)CC3)cc21 (some centres unmarked) [Compound 45]", "subject-of-test": "EGFR T790M/L858R (NCI-H1975 cells) (Homo sapiens, UniProt P00533, L858R/T790M)", "measurement-units": "µM", "DC50": 0.014}

Kindly consider the entry below.
Query: Output measured DC50 for this item: N#Cc1cc(NC2CCC(=O)NC2=O)ccc1C1CCN(CC(=O)N2CCC(c3ccc(-c4cc(F)c5c(c4)C(=O)N(C(C(=O)Nc4nccs4)c4ncn6c4CCC6)C5)cc3)CC2)CC1 (centres unmarked) [Compound 25]
Reply: 0.025

---

# subject-of-test: EGFR L858R (NCI-H3255 cells) (Homo sapiens, UniProt P00533, L858R)
# Construct: NCI-H3255 (harboring EGFR heterozygous L858R mutation); host or cells: NCI-H3255
# Sequence (P00533 25-1210 L858R): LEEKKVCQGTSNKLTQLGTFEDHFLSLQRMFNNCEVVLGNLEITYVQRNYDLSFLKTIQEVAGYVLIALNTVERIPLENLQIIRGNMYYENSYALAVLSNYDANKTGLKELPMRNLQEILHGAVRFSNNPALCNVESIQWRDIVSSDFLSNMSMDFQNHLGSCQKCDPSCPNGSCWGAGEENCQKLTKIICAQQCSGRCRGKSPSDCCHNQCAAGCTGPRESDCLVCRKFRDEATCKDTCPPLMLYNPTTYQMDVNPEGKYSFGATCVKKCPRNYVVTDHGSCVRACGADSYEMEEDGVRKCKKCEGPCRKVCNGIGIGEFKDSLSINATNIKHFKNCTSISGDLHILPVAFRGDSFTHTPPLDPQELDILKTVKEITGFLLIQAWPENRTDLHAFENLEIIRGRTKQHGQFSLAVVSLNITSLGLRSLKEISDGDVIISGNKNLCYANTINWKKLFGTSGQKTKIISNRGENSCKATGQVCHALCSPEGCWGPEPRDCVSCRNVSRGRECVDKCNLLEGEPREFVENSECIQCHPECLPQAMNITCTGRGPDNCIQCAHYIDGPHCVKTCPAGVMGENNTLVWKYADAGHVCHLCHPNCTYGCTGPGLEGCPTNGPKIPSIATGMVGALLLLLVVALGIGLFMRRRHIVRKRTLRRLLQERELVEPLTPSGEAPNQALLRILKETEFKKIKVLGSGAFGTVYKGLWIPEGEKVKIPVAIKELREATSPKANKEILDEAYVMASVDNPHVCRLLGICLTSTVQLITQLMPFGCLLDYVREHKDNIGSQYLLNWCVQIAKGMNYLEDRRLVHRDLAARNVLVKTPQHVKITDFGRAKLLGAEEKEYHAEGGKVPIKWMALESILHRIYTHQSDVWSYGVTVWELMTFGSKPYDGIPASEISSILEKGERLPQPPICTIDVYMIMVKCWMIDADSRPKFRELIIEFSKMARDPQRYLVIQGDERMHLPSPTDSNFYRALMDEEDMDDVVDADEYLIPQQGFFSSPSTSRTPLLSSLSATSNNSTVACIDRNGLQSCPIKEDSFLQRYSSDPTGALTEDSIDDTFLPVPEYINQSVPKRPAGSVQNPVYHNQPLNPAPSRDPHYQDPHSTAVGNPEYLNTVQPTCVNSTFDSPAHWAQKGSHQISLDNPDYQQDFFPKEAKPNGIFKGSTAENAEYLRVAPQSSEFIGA
# test-details: EGFR (L858R) degradation analysis, Total EGFR (L858R) HTRF, NCI-H3255 cells
# Assay type: cell-based
# condition-summary: 6 hours
With a cut-off of 9 nM, any DC50 strictly below it is called yes (1); any DC50 meeting it or above is called no (0).

Please review the following examples before continuing.
{"molecule": "O=C1CCC(Nc2ccc(C3CCN(CC(=O)N4CCN(c5ccc(-c6cc(F)c7c(c6)C(=O)N(C(C(=O)Nc6nccs6)c6ncn8c6CCC8)C7)cc5)CC4)CC3)nc2)C(=O)N1 (centres unmarked)", "subject-of-test": "EGFR L858R (NCI-H3255 cells) (Homo sapiens, UniProt P00533, L858R)", "label": "no (0)"}
{"molecule": "O=C1CC[C@H](Nc2ccc(C3CCN(CC(=O)N4CC5(CCN(c6ccc(-c7cc(F)c8c(c7)C(=O)N(C(C(=O)Nc7nccs7)c7ncn9c7CCC9)C8)cc6)CC5)C4)CC3)c(F)c2)C(=O)N1 (some centres unmarked)", "subject-of-test": "EGFR L858R (NCI-H3255 cells) (Homo sapiens, UniProt P00533, L858R)", "label": "no (0)"}
{"molecule": "Cn1nc(N2CCC(=O)NC2=O)c2ccc(C3CCN(CC(=O)N4CCN(c5ccc(-c6cc(F)c7c(c6)C(=O)N(C(C(=O)Nc6nccs6)c6ncn8c6C[C@@H](F)C8)C7)cc5)CC4)CC3)cc21 (some centres unmarked)", "subject-of-test": "EGFR L858R (NCI-H3255 cells) (Homo sapiens, UniProt P00533, L858R)", "label": "no (0)"}

Continue with the molecule presented below.
Query: Below 9 nM on DC50? Entry N#Cc1cc(NC2CCC(=O)NC2=O)ccc1C1CCN(CC(=O)N2CCC(c3ccc(-c4cc(F)c5c(c4)C(=O)N(C(C(=O)Nc4nccs4)c4ncn6c4CCC6)C5)cc3)CC2)CC1 (centres unmarked)
Reply: yes (1)

---

# subject-of-test: EGFR L858R (NCI-H3255 cells) (Homo sapiens, UniProt P00533, L858R)
# Construct: NCI-H3255 (harboring EGFR heterozygous L858R mutation); host or cells: NCI-H3255
# test-details: EGFR (L858R) degradation analysis, Total EGFR (L858R) HTRF, NCI-H3255 cells
# Type: cell-based
# condition-summary: 6 hours
readout-type: DC50 (µM)
Your answer should be a plain number; it is taken to be in µM.

Please review the entries below; each comes with its answer.
{"compound": "O=C1CC[C@H](Nc2ccc(C3CCN(C(=O)CN4CCN(Cc5ccc(-c6cc(F)c7c(c6)C(=O)N(C(C(=O)Nc6nccs6)c6ncn8c6CCC8)C7)cc5)CC4)CC3)c(F)c2)C(=O)N1 (stereo partly shown)", "DC50 [µM]": 0.012}
{"compound": "O=C1CC[C@H](Nc2ccc(C3CCN(CC(=O)N4CCC(c5ccc(-c6cc(F)c7c(c6)C(=O)N(C(C(=O)Nc6nccs6)c6ncn8c6CCC8)C7)cc5)CC4)CC3)cc2)C(=O)N1 (stereo partly shown)", "DC50 [µM]": 0.015}
{"compound": "O=C1CCC(Nc2ccc(C3CCN(CC(=O)N4CCN(c5ccc(-c6cc(F)c7cn(C(C(=O)Nc8nccs8)c8ncn9c8CCC9)nc7c6)cn5)CC4)CC3)nc2)C(=O)N1 (stereo not shown)", "DC50 [µM]": 0.031}
{"compound": "O=C1CC[C@H](Nc2ccc(C3CCN(CC(=O)N4CC5(C4)CN(c4ccc(-c6cc(F)c7c(c6)C(=O)N(C(C(=O)Nc6nccs6)c6ncn8c6CCC8)C7)cc4)C5)CC3)c(F)c2)C(=O)N1 (stereo partly shown)", "DC50 [µM]": 0.007}

Query: Query DC50 for O=C1CCC(Nc2ccc(C3CCN(CC(=O)N4CCN(Cc5ccc(-c6cc(F)c7c(c6)C(=O)N(C(C(=O)Nc6nccs6)c6ncn8c6CCC8)C7)cc5)CC4)CC3)cc2)C(=O)N1 (stereo not shown)
Reply: 0.014

Query: Input O=C1CCC(Nc2ccc(C3CCN(CC(=O)N4CCN(c5ccc(-c6cc(F)c7c(c6)C(=O)N(C(C(=O)Nc6nccs6)c6ncn8c6CCC8)C7)cc5)CC4)CC3)c(F)c2)C(=O)N1 (stereo not shown) , output reported DC50.
Reply: 0.011

Query: Return reported DC50. Input compound: O=C1CC[C@H](Nc2ccc(C3CCN(CC(=O)N4CCC(n5cc(-c6cc(F)c7c(c6)C(=O)N(C(C(=O)Nc6nccs6)c6ncn8c6CCC8)C7)cn5)CC4)CC3)cc2)C(=O)N1 (stereo partly shown)
Reply: 0.017

Query: Look up DC50 of O=C1CCC(Nc2ccc(C3CCN(CC(=O)N4CCN(c5ccc(-c6cc(F)c7c(c6)C(=O)N(C(C(=O)Nc6ccccn6)c6ncn8c6CCC8)C7)cc5)CC4)CC3)c(F)c2)C(=O)N1 (stereo not shown) and report it.
Reply: 0.025

Query: Annotate the compound O=C1CC[C@@H](Nc2ccc(C3CCN(CC(=O)N4CCC(c5ccc(-c6cc(F)c7c(c6)C(=O)N(C(C(=O)Nc6nccs6)c6ncn8c6CCC8)C7)cc5)CC4)CC3)c(F)c2)C(=O)N1 (stereo partly shown) with its measured DC50.
Reply: 0.006

Query: Report DC50, nothing else, for this compound: O=C1CC[C@H](Nc2ccc(C3CCN(CC(=O)N4CCC(c5cnn(-c6cc(F)c7c(c6)C(=O)N(C(C(=O)Nc6nccs6)c6ncn8c6CCC8)C7)c5)CC4)CC3)cc2)C(=O)N1 (stereo partly shown)
Reply: 0.02

FYI, the data here is from patent US12486290B2.
